# System tested: CYP1A2 (Homo sapiens)
# Sequence (P05177 1-516): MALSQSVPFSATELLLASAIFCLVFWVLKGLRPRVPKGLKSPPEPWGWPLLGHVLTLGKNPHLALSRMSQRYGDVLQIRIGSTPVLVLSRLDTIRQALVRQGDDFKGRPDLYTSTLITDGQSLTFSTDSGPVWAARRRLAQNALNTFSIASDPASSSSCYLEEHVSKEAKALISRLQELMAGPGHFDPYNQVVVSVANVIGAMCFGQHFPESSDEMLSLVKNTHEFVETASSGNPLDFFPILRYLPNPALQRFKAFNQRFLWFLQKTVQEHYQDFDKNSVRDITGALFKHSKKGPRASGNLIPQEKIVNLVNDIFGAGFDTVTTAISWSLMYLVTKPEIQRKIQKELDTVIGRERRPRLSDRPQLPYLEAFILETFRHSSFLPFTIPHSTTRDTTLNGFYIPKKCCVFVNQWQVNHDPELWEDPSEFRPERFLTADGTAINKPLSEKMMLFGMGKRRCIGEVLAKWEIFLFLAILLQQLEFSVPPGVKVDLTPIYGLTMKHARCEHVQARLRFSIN
pIC50 values for the compounds below.
Note on units: pIC50 is unitless, being -log10 of a concentration expressed in mol/L.

| Compound | pIC50 |
| --- | --- |
| CC(C)=CCC[C@](C)(O[C@@H]1O[C@H](CO[C@@H]2O[C@H](CO)[C@@H](O)[C@H](O)[C@H]2O)[C@@H](O)[C@H](O)[C@H]1O)[C@H]1CC[C@]2(C)[C@@H]1[C@H](O)C[C@@H]1[C@@]3(C)CC[C@H](O[C@@H]4O[C@H](CO)[C@@H](O)[C@H](O)[C@H]4O[C@@H]4O[C@H](CO)[C@@H](O)[C@H](O)[C@H]4O)C(C)(C)[C@@H]3CC[C@]12C | 4.42 |

From here, focus on the item given below.
q: pIC50 lookup needed for CC(C)=CCC[C@](C)(O[C@@H]1O[C@H](CO)[C@@H](O)[C@H](O)[C@H]1O)[C@H]1CC[C@]2(C)[C@@H]1[C@H](O)C[C@@H]1[C@@]3(C)CC[C@H](O)C(C)(C)[C@@H]3CC[C@]12C [C-K, ginsenoside Compound K] , thanks.
a: 4.62

----------
# System tested: CYP2C19 (Homo sapiens, UniProt P33261)
# Sequence (P33261 whole entry): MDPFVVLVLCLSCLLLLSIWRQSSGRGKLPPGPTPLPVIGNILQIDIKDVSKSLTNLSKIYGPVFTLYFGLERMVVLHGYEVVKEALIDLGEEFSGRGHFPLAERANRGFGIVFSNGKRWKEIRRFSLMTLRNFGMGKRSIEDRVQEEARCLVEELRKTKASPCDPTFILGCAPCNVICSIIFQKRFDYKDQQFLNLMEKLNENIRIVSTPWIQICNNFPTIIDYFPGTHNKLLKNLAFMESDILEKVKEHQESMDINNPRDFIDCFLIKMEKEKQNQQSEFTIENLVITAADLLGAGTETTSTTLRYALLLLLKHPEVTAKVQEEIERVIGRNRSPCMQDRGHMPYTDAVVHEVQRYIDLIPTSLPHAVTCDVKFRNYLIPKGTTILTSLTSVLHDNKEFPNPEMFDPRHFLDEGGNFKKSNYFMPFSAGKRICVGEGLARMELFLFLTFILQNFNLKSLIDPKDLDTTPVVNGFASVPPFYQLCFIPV
# Measurement protocol: Vivid CYP2C19 blue fluorescent assay
# Study conditions: read-out: IC50 CYP2C19 blue; cDNA-expressed enzyme, Vivid blue substrate 10 µM
Counter-ions that a name gives are not always drawn.
Measured parameter: pIC50
Please report pIC50 as the negative decimal logarithm of the molar concentration, giving only the number.

q: Sample Clc1ccc(COC(Cn2ccnc2)c2ccc(Cl)cc2Cl)c(Cl)c1 (stereo not shown) [miconazole nitrate salt, reference compound] — what was its pIC50?
a: 6.60

----------
Catalogue of molecules with associated inhibition at 30 min, 50 µM
# System tested: CYP3A4 (Homo sapiens)
# Measurement protocol: Vivid CYP3A4 red fluorescent assay
# Study conditions: human, recombinant (cDNA-expressed) CYP3A4 BACULOSOMES, probe Vivid red substrate 3 µM
Answer with a number only, understood to be in %.

For orientation, consider the following solved cases.
| Molecule | inhibition at 30 min, 50 µM / % |
| --- | --- |
| COC(C)(C)CCC[C@](C)(O)[C@H]1CC[C@]2(C)[C@@H]1[C@H](O)C[C@@H]1[C@@]3(C)CC[C@H](O)C(C)(C)[C@@H]3CC[C@]12C [25-OCH3-PPD] | 25.4 |
| CC(C)=CCC[C@](C)(O)[C@H]1CC[C@]2(C)[C@@H]1[C@H](O)C[C@@H]1[C@@]3(C)CC[C@H](O)C(C)(C)[C@@H]3[C@@H](O)C[C@]12C [PPT, protopanaxatriol] | 39.4 |
| CC(C)=CCC[C@](C)(O[C@@H]1O[C@H](CO[C@@H]2O[C@H](CO)[C@@H](O)[C@H](O)[C@H]2O)[C@@H](O)[C@H](O)[C@H]1O)[C@H]1CC[C@]2(C)[C@@H]1[C@H](O)C[C@@H]1[C@@]3(C)CC[C@H](O[C@@H]4O[C@H](CO)[C@@H](O)[C@H](O)[C@H]4O[C@@H]4O[C@H](CO)[C@@H](O)[C@H](O)[C@H]4O)C(C)(C)[C@@H]3CC[C@]12C [Rb1] | 4.4 |

q: Value wanted: inhibition at 30 min, 50 µM (CYP3A4 (Homo sapiens)) of entry CC(C)=CCC[C@](C)(O[C@@H]1O[C@H](CO)[C@@H](O)[C@H](O)[C@H]1O)[C@H]1CC[C@]2(C)[C@@H]1[C@H](O)C[C@@H]1[C@@]3(C)CC[C@H](O)C(C)(C)[C@@H]3[C@@H](O[C@@H]3O[C@H](CO)[C@@H](O)[C@H](O)[C@H]3O)C[C@]12C [Rg1]
a: 16.9

----------
IC50 by entry:
# System tested: CYP2C9 (Homo sapiens, UniProt P11712)
# Construct: purchased Invitrogen Corporation
# Sequence (P11712 whole entry): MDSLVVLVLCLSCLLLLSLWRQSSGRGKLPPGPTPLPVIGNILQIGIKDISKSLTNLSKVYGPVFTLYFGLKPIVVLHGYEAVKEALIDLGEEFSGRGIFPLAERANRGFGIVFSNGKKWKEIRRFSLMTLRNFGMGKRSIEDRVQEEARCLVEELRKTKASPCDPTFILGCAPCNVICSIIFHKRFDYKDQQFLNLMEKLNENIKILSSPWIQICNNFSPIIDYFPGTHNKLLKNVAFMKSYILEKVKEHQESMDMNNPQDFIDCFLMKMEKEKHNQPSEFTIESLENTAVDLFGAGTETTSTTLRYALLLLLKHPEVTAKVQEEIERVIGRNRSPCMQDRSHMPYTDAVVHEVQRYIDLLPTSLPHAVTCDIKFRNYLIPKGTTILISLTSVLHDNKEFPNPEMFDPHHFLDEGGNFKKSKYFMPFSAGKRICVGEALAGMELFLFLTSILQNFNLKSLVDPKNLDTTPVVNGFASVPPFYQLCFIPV
# Measurement protocol: Vivid CYP2C9 red fluorescent assay
# Assay type: in vitro ADME
# Study conditions: cDNA-expressed enzyme, Vivid red substrate 2 µM; maximum concentration 50 µM; read-out: IC50 CYP2C9 red
Return type: number; implicit unit µM.

Example entries and their recorded answers appear below.
| Molecule | Assay value |
| --- | --- |
| CC(C)=CCC[C@@](C)(O)[C@H]1CC[C@]2(C)[C@@H]1[C@H](O)C[C@@H]1[C@@]3(C)CC[C@H](O)C(C)(C)[C@@H]3CC[C@]12C [20(R)-PPD] | 6.7 |
| COC(C)(C)CCC[C@](C)(O)[C@H]1CC[C@]2(C)[C@@H]1[C@H](O)C[C@@H]1[C@@]3(C)CC[C@H](O)C(C)(C)[C@@H]3CC[C@]12C | 7.5 |
| CC(C)=CCC[C@](C)(O)[C@H]1CC[C@]2(C)[C@@H]1[C@H](O)C[C@@H]1[C@@]3(C)CC[C@H](O)C(C)(C)[C@@H]3CC[C@]12C | 8 |
| CC(C)(O)CCC[C@@](C)(O)[C@H]1CC[C@]2(C)[C@@H]1[C@H](O)C[C@@H]1[C@@]3(C)CC[C@H](O)C(C)(C)[C@@H]3CC[C@]12C [20(R)-25-OH-PPD, 20(R)-dammarane-3β, 12β, 20, 25-tetrol] | 7.6 |

q: Recorded IC50 for CC(C)=CCC[C@](C)(O)[C@H]1CC[C@]2(C)[C@@H]1[C@H](O)C[C@@H]1[C@@]3(C)CC[C@H](O[C@@H]4O[C@H](CO)[C@@H](O)[C@H](O)[C@H]4O[C@@H]4O[C@H](CO)[C@@H](O)[C@H](O)[C@H]4O)C(C)(C)[C@@H]3CC[C@]12C , please?
a: 18.5

----------
# System tested: CYP3A4 (Homo sapiens, UniProt P08684)
# Sequence (P08684 whole entry): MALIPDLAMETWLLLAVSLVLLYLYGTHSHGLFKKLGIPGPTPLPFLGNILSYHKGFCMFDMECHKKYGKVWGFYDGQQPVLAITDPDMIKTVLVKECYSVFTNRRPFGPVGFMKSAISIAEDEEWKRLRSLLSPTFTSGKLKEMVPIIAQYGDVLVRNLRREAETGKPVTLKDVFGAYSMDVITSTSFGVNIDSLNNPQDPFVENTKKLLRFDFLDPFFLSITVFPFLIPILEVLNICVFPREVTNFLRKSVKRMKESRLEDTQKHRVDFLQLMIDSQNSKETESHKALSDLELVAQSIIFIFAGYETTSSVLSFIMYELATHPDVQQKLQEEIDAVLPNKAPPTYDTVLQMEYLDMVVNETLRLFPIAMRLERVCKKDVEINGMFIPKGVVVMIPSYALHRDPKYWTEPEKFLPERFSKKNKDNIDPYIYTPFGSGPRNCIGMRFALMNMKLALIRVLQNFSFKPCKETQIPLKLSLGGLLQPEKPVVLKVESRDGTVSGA
# Measurement protocol: Vivid CYP3A4 green fluorescent assay
# Protocol: The inhibition of the catalytic activities of cDNA-expressed human P450 enzymes by ginsenosides was determined using Vivid® P450 screening kits (CYP1A2 blue, CYP2C9 red, CYP2C19 blue, CYP2D6 blue, CYP3A4 green and red) according to the manufacturer's instructions (Invitrogen Corporation; Carlsbad, CA, USA). In brief, the assays were carried out in Costar® black-wall 96-well plates with ultra thin clear bottoms (Corning Inc, Corning, NY, USA) in a kinetic assay mode. […]
Measured parameter: IC50

The examples below pair each entry with its known result.
| Compound | IC50 |
| --- | --- |
| CC(C)=CCC[C@](C)(O[C@@H]1O[C@H](CO[C@@H]2O[C@H](CO)[C@@H](O)[C@H](O)[C@H]2O)[C@@H](O)[C@H](O)[C@H]1O)[C@H]1CC[C@]2(C)[C@@H]1[C@H](O)C[C@@H]1[C@@]3(C)CC[C@H](O[C@@H]4O[C@H](CO)[C@@H](O)[C@H](O)[C@H]4O[C@@H]4O[C@H](CO)[C@@H](O)[C@H](O)[C@H]4O)C(C)(C)[C@@H]3CC[C@]12C [Rb1] | > 100 µM |
| CC(C)=CCC[C@](C)(O)[C@H]1CC[C@]2(C)[C@@H]1[C@H](O)C[C@@H]1[C@@]3(C)CC[C@H](O)C(C)(C)[C@@H]3[C@@H](O[C@@H]3O[C@H](CO)[C@@H](O)[C@H](O)[C@H]3O[C@@H]3O[C@@H](C)[C@H](O)[C@@H](O)[C@H]3O)C[C@]12C [Rg2] | > 100 µM |

Shift focus to the following entry.
q: // query IC50 value for entry CC(C)=CCC[C@](C)(O)[C@H]1CC[C@]2(C)[C@@H]1[C@H](O)C[C@@H]1[C@@]3(C)CC[C@H](O[C@@H]4O[C@H](CO)[C@@H](O)[C@H](O)[C@H]4O)C(C)(C)[C@@H]3CC[C@]12C [Rh2]
a: 47 µM
